# maps each entry to its critical micelle concentration (25° C.)
# run_description: Critical micelle concentration at 25° C. by pyrene fluorescence intensity ratio I1/I3
# Format: physicochemical
# experimental_context: ion exchange water

[
  {
    "compound": "CCCCC(CC)COC(=O)CC(C(=O)OCC(CC)CCCC)S(=O)(=O)[O-].[Na+] (stereo not shown) [(a′-1), sodium di(2-ethylhexyl)sulfosuccinate]",
    "critical micelle concentration (25° C.), mol/L": 0.0028
  },
  {
    "compound": "CCCCCCCCCCCCOS(=O)(=O)[O-].[Na+] [(a′-4), sodium alkyl sulfate with 12 carbons]",
    "critical micelle concentration (25° C.), mol/L": 0.0082
  },
  {
    "compound": "CCCCCCCCCCCCCCCCOS(=O)(=O)[O-].[Na+] [(a′-3), sodium alkyl sulfate with 16 carbons]",
    "critical micelle concentration (25° C.), mol/L": 0.00045
  },
  {
    "compound": "CCCCCCCC/C=C\\CCCCCCCC(=O)[O-].[K+] [(a′-5), potassium oleate]",
    "critical micelle concentration (25° C.), mol/L": 0.0015
  }
]
